measurement_target: MLCK (myosin light chain kinase, smooth muscle) (Homo sapiens, UniProt Q15746)
Sequence (Q15746 whole entry): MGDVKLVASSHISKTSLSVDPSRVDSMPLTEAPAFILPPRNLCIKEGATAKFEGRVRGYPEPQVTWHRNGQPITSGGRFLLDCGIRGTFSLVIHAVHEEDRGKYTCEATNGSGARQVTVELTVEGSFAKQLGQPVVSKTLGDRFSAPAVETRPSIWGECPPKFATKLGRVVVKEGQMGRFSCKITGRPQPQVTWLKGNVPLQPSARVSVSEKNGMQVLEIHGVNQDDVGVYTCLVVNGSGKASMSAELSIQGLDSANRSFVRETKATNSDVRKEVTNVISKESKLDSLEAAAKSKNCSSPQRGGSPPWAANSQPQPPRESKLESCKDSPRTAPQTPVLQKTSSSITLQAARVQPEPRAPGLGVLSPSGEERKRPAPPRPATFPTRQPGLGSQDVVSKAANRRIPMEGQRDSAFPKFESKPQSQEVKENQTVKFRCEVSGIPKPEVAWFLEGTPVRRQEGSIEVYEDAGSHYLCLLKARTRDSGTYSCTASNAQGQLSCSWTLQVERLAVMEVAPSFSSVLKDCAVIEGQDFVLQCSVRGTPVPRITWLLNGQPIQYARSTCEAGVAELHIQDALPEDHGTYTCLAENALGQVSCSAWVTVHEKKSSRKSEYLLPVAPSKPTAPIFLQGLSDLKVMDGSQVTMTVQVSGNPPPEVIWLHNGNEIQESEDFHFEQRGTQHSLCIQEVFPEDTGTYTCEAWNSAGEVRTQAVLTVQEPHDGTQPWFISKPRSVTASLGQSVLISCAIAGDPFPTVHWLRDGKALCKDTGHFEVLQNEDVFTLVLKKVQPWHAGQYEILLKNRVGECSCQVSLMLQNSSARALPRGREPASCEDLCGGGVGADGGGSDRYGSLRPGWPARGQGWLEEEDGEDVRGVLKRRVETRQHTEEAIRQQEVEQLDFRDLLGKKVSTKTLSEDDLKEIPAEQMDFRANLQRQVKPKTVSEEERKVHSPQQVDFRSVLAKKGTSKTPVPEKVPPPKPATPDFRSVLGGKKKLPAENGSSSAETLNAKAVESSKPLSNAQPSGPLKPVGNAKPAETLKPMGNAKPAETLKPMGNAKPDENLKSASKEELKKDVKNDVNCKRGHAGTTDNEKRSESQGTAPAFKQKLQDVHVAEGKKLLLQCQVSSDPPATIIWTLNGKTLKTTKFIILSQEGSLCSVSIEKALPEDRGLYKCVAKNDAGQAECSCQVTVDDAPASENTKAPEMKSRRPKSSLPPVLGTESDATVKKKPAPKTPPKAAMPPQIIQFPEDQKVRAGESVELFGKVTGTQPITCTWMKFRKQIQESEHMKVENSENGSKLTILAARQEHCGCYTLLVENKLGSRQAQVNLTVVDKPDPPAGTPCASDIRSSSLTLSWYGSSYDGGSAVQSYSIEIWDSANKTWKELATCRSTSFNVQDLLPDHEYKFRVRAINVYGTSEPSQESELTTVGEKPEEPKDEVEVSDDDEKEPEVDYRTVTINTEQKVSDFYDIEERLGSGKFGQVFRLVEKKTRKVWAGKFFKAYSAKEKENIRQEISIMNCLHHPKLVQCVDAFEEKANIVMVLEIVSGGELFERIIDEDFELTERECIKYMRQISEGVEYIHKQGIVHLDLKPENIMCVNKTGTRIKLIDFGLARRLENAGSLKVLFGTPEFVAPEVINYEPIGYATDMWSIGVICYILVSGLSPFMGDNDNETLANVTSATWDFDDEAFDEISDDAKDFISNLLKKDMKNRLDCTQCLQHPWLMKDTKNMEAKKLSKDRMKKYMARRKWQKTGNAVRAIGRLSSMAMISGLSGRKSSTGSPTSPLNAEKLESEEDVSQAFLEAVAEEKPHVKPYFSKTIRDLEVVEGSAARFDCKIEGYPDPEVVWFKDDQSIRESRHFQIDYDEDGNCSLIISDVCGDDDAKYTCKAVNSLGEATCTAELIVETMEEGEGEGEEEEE
pKd: −log10 of the molar value.

molecule | pKd
O=c1[nH]c(=O)c2[nH]c(=O)[nH]c2[nH]1 [UA, uric acid] | 3.59

###

measurement_target: MLCK (myosin light chain kinase, smooth muscle) (Homo sapiens, UniProt Q15746, N1725A)
Sequence (Q15746 923-1914 N1725A): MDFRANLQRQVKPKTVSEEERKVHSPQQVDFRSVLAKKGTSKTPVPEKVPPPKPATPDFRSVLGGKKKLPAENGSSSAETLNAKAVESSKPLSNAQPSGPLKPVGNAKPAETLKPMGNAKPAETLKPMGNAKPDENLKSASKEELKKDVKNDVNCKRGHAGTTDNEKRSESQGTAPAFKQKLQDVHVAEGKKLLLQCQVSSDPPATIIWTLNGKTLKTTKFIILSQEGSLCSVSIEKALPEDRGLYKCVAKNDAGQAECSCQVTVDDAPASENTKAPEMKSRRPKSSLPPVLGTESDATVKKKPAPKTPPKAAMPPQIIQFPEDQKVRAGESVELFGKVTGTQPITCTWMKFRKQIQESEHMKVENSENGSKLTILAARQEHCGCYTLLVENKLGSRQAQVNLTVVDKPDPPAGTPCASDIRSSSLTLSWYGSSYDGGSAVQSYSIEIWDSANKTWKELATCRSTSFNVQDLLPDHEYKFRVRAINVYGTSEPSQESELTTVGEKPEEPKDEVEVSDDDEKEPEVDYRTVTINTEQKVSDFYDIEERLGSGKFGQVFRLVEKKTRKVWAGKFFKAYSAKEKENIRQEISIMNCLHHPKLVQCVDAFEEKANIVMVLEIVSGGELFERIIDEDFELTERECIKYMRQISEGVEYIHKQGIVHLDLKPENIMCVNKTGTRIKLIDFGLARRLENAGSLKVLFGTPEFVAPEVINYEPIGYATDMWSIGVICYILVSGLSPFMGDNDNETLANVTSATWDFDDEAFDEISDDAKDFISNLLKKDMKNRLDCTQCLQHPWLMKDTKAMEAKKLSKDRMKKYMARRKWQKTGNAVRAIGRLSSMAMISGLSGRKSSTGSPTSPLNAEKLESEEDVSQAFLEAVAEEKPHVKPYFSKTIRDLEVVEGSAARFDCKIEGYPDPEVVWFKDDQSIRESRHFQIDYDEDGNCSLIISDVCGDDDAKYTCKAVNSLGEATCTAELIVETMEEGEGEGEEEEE
assay_notes: SPR
measure: Kd (µM)

molecule | measurement_target | reported_measurement
O=c1[nH]c(=O)c2[nH]c(=O)[nH]c2[nH]1 [UA, uric acid] | MLCK (myosin light chain kinase, smooth muscle) (Homo sapiens, UniProt Q15746, N1725A) | 312
